Tested on: A549 NSCLC
Test: NCI tumour cell line growth inhibition, 48 h
Reported TGI values follow for various molecules

// fetch TGI given entry `C[n+]1ccc(-c2c3nc(c(-c4cc[n+](C)cc4)c4ccc([n-]4)c(-c4cc[n+](C)cc4)c4nc(c(-c5cc[n+](C)cc5)c5ccc2[n-]5)C=C4)C=C3)cc1.[I-].[Zn+2]` 49.5 µM

Read the entry `CC[C@@]1(O)C(=O)OCc2c1cc1n(c2=O)Cc2c-1nc1cc3c(cc1c2C)OCO3` and write its reported TGI. 0.0737 µM

Give me measured TGI, please, for this molecule: COc1ccc2c(c1OC)OCC(CN(C)C)C2=O (stereo not drawn) > 63.9 µM

---

Test system: RPMI-8226 leukemia
Assay: NCI tumour cell line growth inhibition, 48 h
Each entry below carries its reported TGI.

Past entries and their recorded results:
1. CC1(C)CCC(C)(C)c2c1ccc(O)c2Cc1c(O)ccc2c1C(C)(C)CCC2(C)C :: 4.47 µM
2. N#CC1=C(N)NC(=S)NC12Nc1ccccc1N2 :: > 100 µM
3. Cc1nc(C(N)=S)sc1C(=O)CC(=O)C(=O)Nc1nc2ccccc2[nH]1 :: > 100 µM

Quote TGI reported for `CCC[CH2][Sn]1([CH2]CCC)[O]C(=O)c2ccc(C)cc2[O]1` please. 0.76 µM

Give reported TGI value for `CN(C)CCCCN1c2ccccc2Sc2ccc(C(=O)c3ccccc3)cc21` > 100 µM

Give the value of TGI reported for the following: `CN1Cc2cc3c(cc2-c2ccccc21)OCO3` > 100 µM

Assign TGI to the following record: CC(=O)O[C@H]1CCC2[C@@H]3CCC4Cc5nc6c(nc5C[C@]4(C)C3CC[C@@]21C)CC1CC[C@@H]2C(CC[C@@]3(C)C2CC[C@@H]3C(C)CCCC(C)C)[C@@]1(C)C6 (stereo partly specified) > 100 µM

Identify TGI associated with the compound `COc1cc(Nc2nc3ccc(C(F)(F)F)cc3nc2C(=O)O)cc(OC)c1OC` 91.3 µM

Look up TGI of CCOC(=O)C(C)(C)C(O)C(C)C (stereo unspecified) and report it. > 100 µM

Indicate the recorded TGI value for this compound: `O[C@@H]1C[C@H]2N3CC[C@@]2(c2cc4c(cc2C3)OCO4)[C@H]2O[C@@H]12` > 100 µM

In one line, give reported TGI of the entry `O=C1c2ccccc2-c2c1c1c(O)cccc1n2-c1ccccc1` . 93.8 µM

Retrieve TGI measured for COC1CC(NC(=O)C(F)(F)F)C(OC(C)=O)C(C)O1 (stereo unspecified) and print it. > 100 µM

Give me measured TGI, please, for this compound: CCc1ccc2c(c1)N(CCO)C1=C(C(=O)OC1)C2c1cccc(Cl)c1 (stereo unspecified) 52.6 µM

---

Listing of recorded TGI by entry.
Test system: BT-549 breast
Assay: NCI tumour cell line growth inhibition, 48 h

1) COc1ccc(-c2nc(N3CCN(C(=O)C4CCCCC4)CC3)c3c4c(sc3n2)CCCC4)cc1 :: > 100 µM
2) CC(C)=CCN1c2ccc(Cl)cc2NC(=O)CC1C (stereo unspecified) :: 59.5 µM
3) CCS(=O)(=O)Nc1cccc(Nc2c3cccc(C)c3nc3c(C)cccc23)c1OC :: 25.1 µM
4) CN(C)Cc1cc(C=O)cc(CN(C)C)c1O :: > 100 µM
5) COc1ccc(/C(CC2OC(=O)c3ccccc32)=N\NC(=O)C[N+](C)(C)C)cc1 (stereo unspecified) :: 77.1 µM
6) COc1cc(/C=C/C(=O)CC(=O)/C=C/c2ccc(O)c(OC)c2)ccc1O :: 13.7 µM
7) OCC1OC(n2cnc3c(Cl)nc(Cl)cc32)C(O)C1O (stereo unspecified) :: > 100 µM
8) O=c1c2c3c(sc2nc(N/N=C/c2ccc(Br)cc2)n1Cc1ccccc1)CCCC3 :: > 100 µM
9) O=[N+]([O-])c1cc(Cl)cc2cc(Br)cnc12 :: > 31.6 µM
10) COc1c(OC/C=C(\C)CCC=C(C)C)ccc2ccc(=O)oc12 :: > 100 µM

Lab note: next compound to report on.
Enter recorded TGI with BT-549 breast for COC1CC(NC(=O)C(F)(F)F)C(OC(C)=O)C(C)O1 (stereo unspecified) here. > 100 µM
